Measured On: PDE 7 (phosphodiesterase VII) (Homo sapiens (Human), UniProt Q13946)
Sequence (Q13946 whole entry): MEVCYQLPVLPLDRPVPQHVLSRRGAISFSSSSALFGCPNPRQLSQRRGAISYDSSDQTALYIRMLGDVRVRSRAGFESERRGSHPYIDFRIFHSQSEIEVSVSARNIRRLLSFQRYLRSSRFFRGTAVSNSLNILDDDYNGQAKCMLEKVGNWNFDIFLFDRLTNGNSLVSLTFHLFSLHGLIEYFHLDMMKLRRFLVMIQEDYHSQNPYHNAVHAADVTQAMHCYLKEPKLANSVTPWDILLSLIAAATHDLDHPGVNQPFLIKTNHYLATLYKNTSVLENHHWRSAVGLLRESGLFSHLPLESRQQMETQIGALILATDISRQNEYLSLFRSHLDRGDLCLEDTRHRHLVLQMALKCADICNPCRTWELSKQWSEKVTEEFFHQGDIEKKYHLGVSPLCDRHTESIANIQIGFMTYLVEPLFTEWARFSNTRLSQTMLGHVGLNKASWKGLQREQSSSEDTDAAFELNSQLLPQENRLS
Assay Details: PDE 7 inhibiting effect (3H-cAMP hydrolysis, PDE 7 active fraction from MOLT-4 cells)
Format: biochemical
Test Conditions: PDE 7 fraction from MOLT-4 cells, 0.064 μM cAMP, 10 μM rolipram, 2 hours at 25° C.; read-out: PDE7 IC50
Would you kindly list log10 IC50 for each of these compounds?
Base-10 log of IC50, unit nM.

Record Cc1nn(C2CCOCC2)c2sc(C(=O)Nc3ccc(N4CCN(C)CC4)cc3)cc12 ; system PDE 7 (phosphodiesterase VII) (Homo sapiens (Human), UniProt Q13946); log10 IC50 = 1.95

Record CCN1C(=O)CN(CCNC(=O)c2cc3c(C)nn(C4CCCCC4)c3s2)C1=O ; system PDE 7 (phosphodiesterase VII) (Homo sapiens (Human), UniProt Q13946); log10 IC50 = 1.99

Record CC(=O)N1CCN(C[C@H]2CC[C@H](NC(=O)c3cc4c(C)nn(C5CCOCC5)c4s3)CC2)CC1 ; system PDE 7 (phosphodiesterase VII) (Homo sapiens (Human), UniProt Q13946); log10 IC50 = 1.76

Record Cc1nn(C2CCCCC2)c2sc(C(=O)Nc3ccc(C(=O)N4CCN(C)CC4)cc3)cc12 ; system PDE 7 (phosphodiesterase VII) (Homo sapiens (Human), UniProt Q13946); log10 IC50 = 1.98

Record Cc1nn(C2CCOCC2)c2sc(C(=O)N[C@H]3CC[C@H](N4CCN(C)C(=O)C4)CC3)cc12 ; system PDE 7 (phosphodiesterase VII) (Homo sapiens (Human), UniProt Q13946); log10 IC50 = 1.46

Record Cc1nn(C2CCCCC2)c2sc(C(=O)N[C@H]3C[C@@H]3CO)cc12 (racemic) ; system PDE 7 (phosphodiesterase VII) (Homo sapiens (Human), UniProt Q13946); log10 IC50 = 1.73

Record Cc1nn(C2CCCCC2)c2sc(C(=O)NCCN3CC(=O)N(C)C3=O)cc12 ; system PDE 7 (phosphodiesterase VII) (Homo sapiens (Human), UniProt Q13946); log10 IC50 = 1.83

Record Cc1nn(C2CCCCC2)c2sc(C(=O)Nc3ccc(N4CCNC4=O)nc3)cc12 ; system PDE 7 (phosphodiesterase VII) (Homo sapiens (Human), UniProt Q13946); log10 IC50 = 0.30

Record Cc1nn(C2CCCCC2)c2sc(C(=O)NC3CCN(C4CCOCC4)CC3)cc12 ; system PDE 7 (phosphodiesterase VII) (Homo sapiens (Human), UniProt Q13946); log10 IC50 = 1.72

Record CC(=O)c1ccc(NC(=O)c2cc3c(C)nn(C4CCCCC4)c3s2)cc1 ; system PDE 7 (phosphodiesterase VII) (Homo sapiens (Human), UniProt Q13946); log10 IC50 = 1.52

Record Cc1nn(C2CCCCC2)c2sc(C(=O)Nc3ccc(OCC(=O)N4CCN(C)CC4)cc3)cc12 ; system PDE 7 (phosphodiesterase VII) (Homo sapiens (Human), UniProt Q13946); log10 IC50 = 1.30

Record CNC(=O)c1ccc(NC(=O)c2cc3c(C)nn(C4CCCCC4)c3s2)cc1OC ; system PDE 7 (phosphodiesterase VII) (Homo sapiens (Human), UniProt Q13946); log10 IC50 = 1.93

Record Cc1nn(C2CCCCC2)c2sc(C(=O)Nc3ccc(C(=O)N(C)C)cc3)cc12 ; system PDE 7 (phosphodiesterase VII) (Homo sapiens (Human), UniProt Q13946); log10 IC50 = 1.15

Record Cc1nn(C2CCCCC2)c2sc(C(=O)N[C@H]3CC[C@H](CO)CC3)cc12 ; system PDE 7 (phosphodiesterase VII) (Homo sapiens (Human), UniProt Q13946); log10 IC50 = 1.70

Record Cc1nn(C2CCCCC2)c2sc(C(=O)NCC(C)(C)CN3C(=O)CNC3=O)cc12 ; system PDE 7 (phosphodiesterase VII) (Homo sapiens (Human), UniProt Q13946); log10 IC50 = 1.30

Record Cc1nn(C2CCCCC2)c2sc(C(=O)N[C@H]3CC[C@H](N4CCNC4=O)CC3)cc12 ; system PDE 7 (phosphodiesterase VII) (Homo sapiens (Human), UniProt Q13946); log10 IC50 = 0.95

Record Cc1nn(C2CCCCC2)c2sc(C(=O)Nc3ccc(N)cc3)cc12 ; system PDE 7 (phosphodiesterase VII) (Homo sapiens (Human), UniProt Q13946); log10 IC50 = 2.00
